Each entry below carries its reported Regional activity wash-out: % decrease from peak to last scan, Midbrain.
Tested on: SERT
Assay: Baboon PET imaging: brain uptake, kinetic analysis and SERT parameters
Format: in vivo
Conditions: last scan 90 minutes; baboons, mean ± SD of four experiments
Express your answer in %, writing the number without its unit.

| COMPOUND | TEST RESULT |
| --- | --- |
| CN(C)Cc1ccccc1Sc1ccc(I)cc1N [[^11C]ADAM] | 10 |

Bench note: what Regional activity wash-out: % decrease from peak to last scan, Midbrain did CN(C)Cc1ccccc1Sc1ccc(Br)cc1N [[^11C]DAPA] show? 2

Fill blank: measured Regional activity wash-out: % decrease from peak to last scan, Midbrain of the compound CN([11CH3])Cc1ccccc1Sc1ccc(CF)cc1N [[^11C]AFM] is ____. 16

Sample [11CH3]Sc1ccc([C@H]2CN3CCC[C@H]3c3ccccc32)cc1 [[^11C]McN 5652] — what was its Regional activity wash-out: % decrease from peak to last scan, Midbrain? 8

Returns the measured Regional activity wash-out: % decrease from peak to last scan, Midbrain for the input compound. Input: CN(C)Cc1ccccc1Sc1ccc(C#N)cc1N [[^11C]DASB] 32
